# EXPERIMENT: Primary qHTS for inhibitors of nuclear receptor binding SET domain protein 2 (NSD2) in an isogenic RCH-ACV NSD2 p.E1099K mutant (9B) (AID 1645876); note: nearly all actives have a fitted effect of over 70% in size
# SETTINGS: RCH-ACV (leukaemia line) NSD2 E1099K (9B) viability, CellTiter-Glo, 72 h; series mostly up to 44.9 µM
Records with an inconclusive call do not appear. The source made the active and inactive calls. Calls come from the whole dose curve; as a rule, active = well fitted inhibition curve with a large enough effect; inconclusive = small, poorly fitted or top-dose-only effect; inactive = flat fitted curve, though single readings scatter.
Possible outcomes: active, inactive

>>> class_label("CC(=O)N(c1onc(C)c1C)S(=O)(=O)c1ccc(N)cc1")
"inactive"
>>> class_label("O=C(CS(=O)Cc1ccco1)NC/C=C\\COc1cc(CN2CCCCC2)ccn1 (stereo not drawn)")
"inactive"
>>> class_label("CO/N=C(\\C(=O)O)c1csc(NC(=O)CCl)n1")
"inactive"
>>> class_label("O=C(O)c1[nH]n(-c2ccc(S(=O)(=O)O)cc2)c(=O)c1N=Nc1ccc(S(=O)(=O)O)cc1")
"inactive"
>>> class_label("Nc1nc(=O)n([C@@H]2O[C@H](CO)[C@@H](O)[C@@H]2F)cc1I")
"active"
>>> class_label("CN1C(CSCC(F)(F)F)Nc2cc(Cl)c(S(N)(=O)=O)cc2S1(=O)=O (stereo not drawn)")
"inactive"
>>> class_label("CCC1(c2cnc[nH]2)Cc2ccccc2C1")
"inactive"
>>> class_label("COc1ccc2c(c1)CCCC2=O")
"inactive"
>>> class_label("CCCC(CCC)(C(=O)OCC)C(=O)OCC")
"inactive"
>>> class_label("C/C(=N\\O)[C@@H](C)NCC(C)(C)CN[C@H](C)/C(C)=N/O")
"inactive"
>>> class_label("CC(=O)Nc1ccn(C2COC(COC(=O)c3ccccc3)O2)c(=O)n1 (stereo not drawn)")
"active"
>>> class_label("CCCC(=O)O[C@]1(C(=O)COC(=O)CC)CC[C@H]2[C@@H]3CCC4=CC(=O)CC[C@]4(C)[C@H]3[C@@H](O)C[C@@]21C")
"inactive"
>>> class_label("Nc1ccc(C(=O)N2CC3CC(CN(Cc4ccccc4)C3)C2)cc1")
"inactive"
